Protocol Summary: Solubility in phosphate buffered saline (1% DMSO) at pH 6.5 (24 hr equilibration)
Format: physicochemical
Setup Conditions: buffer
Measured Parameter: Solubility (µg/mL)
The reply should contain only the number, in µg/mL.

Asked: What does the record list as Solubility for O=C(CCn1c2c(c(=O)[nH]c1=O)CSCC2)NCC(=O)N1CCN(c2ccccc2)CC1 ?
Given back: 330

###

Protocol Summary: Area under the curve was determined by administering the compound at a dose of 1 mg/kg intravenously in male wistar rat
Assay type: ADME, organism-based
Set-up: dose 1 mg/kg, route intravenous
Setup Conditions: in vivo, iv
// values below are reported AUC
# value in ng·h/mL; strip the unit string

As a guide, the following entries are already answered.
Smiles Record: O=C(CCn1c2c(c(=O)[nH]c1=O)CSCC2)NCC(=O)N1CCN(c2ccccc2)CC1
AUC / ng·h/mL: 230
//
Smiles Record: COc1ccc(N2CCN(C(=O)CNC(=O)CCn3c4c(c(=O)[nH]c3=O)CSCC4)CC2)cc1
AUC / ng·h/mL: 160
//
Smiles Record: O=C(CCn1c2c(c(=O)[nH]c1=O)CSCC2)NCC(=O)N1CCN(c2ccccn2)CC1
AUC / ng·h/mL: 320

Asked: Returns the measured AUC for the input molecule. Input: O=C(CCn1c2c(c(=O)[nH]c1=O)CSCC2)NCC(=O)c1ccc(-c2cccnn2)cc1
Given back: 610

Asked: Need AUC of O=C(CCn1c2c(c(=O)[nH]c1=O)CSCC2)NCC(=O)N1CCN(c2ncccn2)CC1 , thanks.
Given back: 520

Asked: Dear colleague, I am looking for the recorded AUC of the following molecule: O=C(CCn1c2c(c(=O)[nH]c1=O)CCCC2)NCC(=O)c1ccc2ccccc2c1
Given back: 600

Asked: What does the data say about its AUC? Entry: O=C(CCn1c2c(c(=O)[nH]c1=O)CSCC2)NCC(=O)N1CCN(c2cc(C(F)(F)F)ccn2)CC1
Given back: 450

Asked: Tell me the measured AUC of O=C(CCn1c2c(c(=O)[nH]c1=O)CSCC2)NCC(=O)N1CCN(c2ncccc2C(F)(F)F)CC1 , please.
Given back: 230
